system name: SARS-CoV-2 spike protein (SARS-CoV-2), P0DTC2
test protocol: HT-SPR, Carterra LSA; mAb coupled to chip, antigen injected; 1:1 fit
protocol conditions: remark: other sources report otherwise
experimental endpoint: koff (s⁻¹)
Give your result in s⁻¹ as a bare value.

Query string: Read the entry antibody 521 (antibody, V domains shown) VH: QVQLVESGGGVVQPGRSLRLSCAASGFTFSSYGMHWVRQAPGKGLEWVAVIWYDGSNKYYADSVKGRFTISRDNSKNTLYLQMNSLRAEDTAVYYCAREGNDYGDYGEWELLGYFDYWGQGTLVTVSS VL: SYELTQPPSVSVSPGQTARITCSGDALPKKYAYWYQQKSGQAPVLVIYEDSKRPSGIPERFSGSSSGTMATLTISGAQVEDEADYYCYSTDSSGNHRRVFGGGTKLTVL and write its reported koff.
Result string: 0.000299
